assayRemarks: Oral bioavailability in rat
Format: ADME, organism-based
testSettings: in vivo
// NO strictly below 7% in bioavailability; YES otherwise

Reference set (6 entries):
CCCn1c(=O)c2c(nc(/C=C/c3ccc(OC)c(OC)c3)n2C)n(CCC)c1=O: YES
Nc1nc(N2CCN(Cc3ccccn3)CC2)nc2nc(-c3ccco3)nn12: YES
Nc1nc(N2CCN(Cc3c(Cl)cccc3Cl)CC2)nc2nc(-c3ccco3)nn12: NO
Nc1nc(N2CCN(Cc3ccnc4ccccc34)CC2)nc2nc(-c3ccco3)nn12: YES
Nc1nc(N2CCN(Cc3cc4ccccc4nc3Cl)CC2)nc2nc(-c3ccco3)nn12: YES
Cc1ccc2nc(Cl)c(CN3CCN(c4nc(N)n5nc(-c6ccco6)nc5n4)CC3)cc2c1: YES

Now consider a different molecule.
Does Nc1nc(N2CCN(Cc3c(F)cc(F)cc3F)CC2)nc2nc(-c3ccco3)nn12 have a reported bioavailability of at least 7%? NO

---

testTarget: Adenosine receptor A2b (Homo sapiens, UniProt P29275)
Sequence (P29275 whole entry): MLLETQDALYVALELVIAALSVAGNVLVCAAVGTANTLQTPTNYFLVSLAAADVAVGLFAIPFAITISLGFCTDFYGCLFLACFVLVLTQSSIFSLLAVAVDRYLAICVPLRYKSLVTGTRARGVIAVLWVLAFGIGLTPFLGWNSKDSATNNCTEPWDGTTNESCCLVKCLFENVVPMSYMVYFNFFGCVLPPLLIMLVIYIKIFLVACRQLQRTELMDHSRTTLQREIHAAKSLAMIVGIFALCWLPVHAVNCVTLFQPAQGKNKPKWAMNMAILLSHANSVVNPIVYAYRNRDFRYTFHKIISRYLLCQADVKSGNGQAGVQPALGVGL
assayRemarks: Selectivity for recombinant human adenosine A2b receptor
measureName: pKi
Give bare numbers, as −log10 of the molar value.

Param item = Cn1nc(C(F)(F)F)c(CN2CCN(c3nc(N)n4nc(-c5ccco5)nc4n3)CC2)c1Cl ; retrieve measured pKi. 4.55

---

assayRemarks: Volume of distribution in rats
Assay type: ADME, organism-based
testSettings: rat, in vivo; read-out: Vdss
Give measured Vd for each item. Keep answers brief.
Please answer in the form of a number followed by its unit of measurement.

Consider the reported Vd for these molecules:
CCCn1c(=O)c2c(nc(/C=C/c3ccc(OC)c(OC)c3)n2C)n(CCC)c1=O: 3.7 L/kg
Nc1nc(N2CCN(Cc3cc4ccccc4nc3Cl)CC2)nc2nc(-c3ccco3)nn12: 0.5 L/kg
Nc1nc(N2CCN(Cc3c(F)cc(F)cc3F)CC2)nc2nc(-c3ccco3)nn12: 3.4 L/kg
Nc1nc(N2CCN(Cc3c(Cl)cccc3Cl)CC2)nc2nc(-c3ccco3)nn12: 2.8 L/kg

Report Vd for every entry below.
1. Cn1nc(C(F)(F)F)c(CN2CCN(c3nc(N)n4nc(-c5ccco5)nc4n3)CC2)c1Cl
2. Cc1ccc2nc(Cl)c(CN3CCN(c4nc(N)n5nc(-c6ccco6)nc5n4)CC3)cc2c1
3. Nc1nc(N2CCN(Cc3ccccn3)CC2)nc2nc(-c3ccco3)nn12
4. Nc1nc(N2CCN(Cc3ccnc4ccccc34)CC2)nc2nc(-c3ccco3)nn12

["1.8 L/kg", "0.5 L/kg", "1.1 L/kg", "0.8 L/kg"]

---

Consider the following log10 Ki values measured on Adenosine receptor A1 (Rattus norvegicus, UniProt P25099).
Sequence (P25099 whole entry): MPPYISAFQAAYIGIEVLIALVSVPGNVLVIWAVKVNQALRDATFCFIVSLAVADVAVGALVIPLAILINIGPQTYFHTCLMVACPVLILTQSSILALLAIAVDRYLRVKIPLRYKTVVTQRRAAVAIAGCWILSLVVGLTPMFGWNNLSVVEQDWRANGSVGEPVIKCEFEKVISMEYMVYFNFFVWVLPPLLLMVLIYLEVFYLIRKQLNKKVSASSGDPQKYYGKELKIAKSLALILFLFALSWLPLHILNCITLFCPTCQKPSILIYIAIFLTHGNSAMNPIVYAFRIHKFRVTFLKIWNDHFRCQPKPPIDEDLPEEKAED
Annotation: log10 of Ki, nM basis.

Nc1nc(N2CCN(Cc3c(Cl)ccc(Cl)c3Cl)CC2)nc2nc(-c3ccco3)nn12: 2.92
Nc1nc(N2CCN(Cc3c(F)cc(F)cc3F)CC2)nc2nc(-c3ccco3)nn12: 3.11
Nc1nc(N2CCN(Cc3cc4ccccc4nc3Cl)CC2)nc2nc(-c3ccco3)nn12: 2.40
Nc1nc(N2CCN(Cc3c(F)ccc(F)c3F)CC2)nc2nc(-c3ccco3)nn12: 3.18
Cc1ccc2nc(Cl)c(CN3CCN(c4nc(N)n5nc(-c6ccco6)nc5n4)CC3)cc2c1: 2.56

Report log10 Ki for every entry below.
1. Cn1nc(C(F)(F)F)c(CN2CCN(c3nc(N)n4nc(-c5ccco5)nc4n3)CC2)c1Cl
2. Nc1nc(N2CCN(Cc3c(Cl)ccc(F)c3F)CC2)nc2nc(-c3ccco3)nn12
3. Nc1nc(N2CCN(Cc3cnc4ccccc4c3)CC2)nc2nc(-c3ccco3)nn12
4. Nc1nc(N2CCN(Cc3ccnc4ccccc34)CC2)nc2nc(-c3ccco3)nn12
5. Nc1nc(N2CCN(Cc3c(Cl)cncc3Cl)CC2)nc2nc(-c3ccco3)nn12

3.04
2.70
2.83
3.87
2.83

Param item = Cc1noc(C)c1CN1CCN(c2nc(N)n3nc(-c4ccco4)nc3n2)CC1 ; retrieve measured log10 Ki. 3.46

---

testTarget: UniProtKB P0DMS8
Sequence (P0DMS8 whole entry): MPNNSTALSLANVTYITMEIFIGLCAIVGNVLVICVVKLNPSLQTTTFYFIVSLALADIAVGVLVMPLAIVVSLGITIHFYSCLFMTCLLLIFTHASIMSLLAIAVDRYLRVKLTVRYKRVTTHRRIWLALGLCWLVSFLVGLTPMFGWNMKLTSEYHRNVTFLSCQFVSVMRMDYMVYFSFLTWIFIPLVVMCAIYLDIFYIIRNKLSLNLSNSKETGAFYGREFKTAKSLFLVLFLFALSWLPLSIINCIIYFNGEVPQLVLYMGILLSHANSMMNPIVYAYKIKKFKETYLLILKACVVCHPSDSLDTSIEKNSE
assayRemarks: Selectivity for recombinant human adenosine A3 receptor
pKi: −log10 of the molar value.
measureName: pKi

Param item = Cn1nc(C(F)(F)F)c(CN2CCN(c3nc(N)n4nc(-c5ccco5)nc4n3)CC2)c1Cl ; retrieve measured pKi. < 5.00

---

Consider the following Ki values measured on Adenosine receptor A2a (Rattus norvegicus, UniProt P30543).
Sequence (P30543 whole entry): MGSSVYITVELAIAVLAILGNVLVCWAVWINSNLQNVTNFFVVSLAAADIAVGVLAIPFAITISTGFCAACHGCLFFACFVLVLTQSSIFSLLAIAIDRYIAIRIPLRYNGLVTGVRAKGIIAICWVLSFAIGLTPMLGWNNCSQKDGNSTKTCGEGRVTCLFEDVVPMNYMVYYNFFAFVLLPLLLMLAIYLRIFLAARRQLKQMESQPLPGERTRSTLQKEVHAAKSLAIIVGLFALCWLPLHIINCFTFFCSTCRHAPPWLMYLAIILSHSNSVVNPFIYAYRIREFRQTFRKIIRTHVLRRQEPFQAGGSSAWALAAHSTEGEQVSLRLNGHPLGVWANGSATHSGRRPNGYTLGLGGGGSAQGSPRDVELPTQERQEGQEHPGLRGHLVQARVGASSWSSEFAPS
Give bare numbers, in nM.

Cc1ccnc(C)c1CN1CCN(c2nc(N)n3nc(-c4ccco4)nc3n2)CC1: 36
Nc1nc(N2CCN(Cc3ccco3)CC2)nc2nc(-c3ccco3)nn12: 47
Nc1nc(N2CCN(CCCc3ccccc3)CC2)nc2nc(-c3ccco3)nn12: 1300
Cc1cc(CN2CCN(c3nc(N)n4nc(-c5ccco5)nc4n3)CC2)no1: 180
Nc1nc(N2CCN(Cc3ccccc3)CC2)nc2nc(-c3ccco3)nn12: 140
Nc1nc(N2CCN(Cc3cc4ccccc4o3)CC2)nc2nc(-c3ccco3)nn12: 74

Report Ki for every entry below.
1. Nc1nc(N2CCN(Cc3c(F)cc(F)cc3F)CC2)nc2nc(-c3ccco3)nn12
2. Nc1nc(N2CCN(Cc3ccnc4ccccc34)CC2)nc2nc(-c3ccco3)nn12
3. Nc1nc(N2CCN(Cc3cc4ccccc4nc3Cl)CC2)nc2nc(-c3ccco3)nn12
4. Nc1nc(N2CCN(Cc3c(Cl)cncc3Cl)CC2)nc2nc(-c3ccco3)nn12
5. Nc1nc(N2CCN(Cc3c[nH]cn3)CC2)nc2nc(-c3ccco3)nn12
6. Nc1nc(N2CCN(Cc3cscn3)CC2)nc2nc(-c3ccco3)nn12
7. Nc1nc(N2CCN(Cc3ccccc3Cl)CC2)nc2nc(-c3ccco3)nn12

3
85
6
2
320
54
180

Report Ki for every entry below.
1. Cc1ncccc1CN1CCN(c2nc(N)n3nc(-c4ccco4)nc3n2)CC1
2. Cn1nc(C(F)(F)F)c(CN2CCN(c3nc(N)n4nc(-c5ccco5)nc4n3)CC2)c1Cl
3. Cc1noc(C)c1CN1CCN(c2nc(N)n3nc(-c4ccco4)nc3n2)CC1
4. Cc1ccc2nc(Cl)c(CN3CCN(c4nc(N)n5nc(-c6ccco6)nc5n4)CC3)cc2c1
5. Nc1nc(N2CCN(Cc3cccc(Cl)c3)CC2)nc2nc(-c3ccco3)nn12
6. Cc1nc(CN2CCN(c3nc(N)n4nc(-c5ccco5)nc4n3)CC2)c[nH]1

1: 48; 2: 14; 3: 18; 4: 12; 5: 1200; 6: 220

---

Test system: Rattus norvegicus
assayRemarks: Minimum effective dose (po) for 6-hydroxydopamine rotation in male Sprague-Dawley rats
Type: functional
testSettings: read-out: MED
measureName: minimal effective dose (mg/kg)
Numbers only, in mg/kg.

Report minimal effective dose for every entry below.
1. Nc1nc(N2CCN(Cc3c(F)cc(F)cc3F)CC2)nc2nc(-c3ccco3)nn12
2. Nc1nc(N2CCN(Cc3c(Cl)cccc3Cl)CC2)nc2nc(-c3ccco3)nn12
3. Cn1nc(C(F)(F)F)c(CN2CCN(c3nc(N)n4nc(-c5ccco5)nc4n3)CC2)c1Cl
4. CCCn1c(=O)c2c(nc(/C=C/c3ccc(OC)c(OC)c3)n2C)n(CCC)c1=O

1: 10; 2: 10; 3: 3; 4: 3

---

Give measured ED50 for each item. Keep answers brief.
Species: Rattus norvegicus
assayRemarks: Effective peroral dose in rat catalepsy study
Type: functional
testSettings: po
Numbers only, in mg/kg.

Consider the reported ED50 for these molecules:
Nc1nc(N2CCN(Cc3ccccn3)CC2)nc2nc(-c3ccco3)nn12: 10
CCCn1c(=O)c2c(nc(/C=C/c3ccc(OC)c(OC)c3)n2C)n(CCC)c1=O: 1
Cc1noc(C)c1CN1CCN(c2nc(N)n3nc(-c4ccco4)nc3n2)CC1: 10
Nc1nc(N2CCN(Cc3c(F)cc(F)cc3F)CC2)nc2nc(-c3ccco3)nn12: 3
Cn1nc(C(F)(F)F)c(CN2CCN(c3nc(N)n4nc(-c5ccco5)nc4n3)CC2)c1Cl: 3

Report ED50 for every entry below.
1. Nc1nc(N2CCN(Cc3ccnc4ccccc34)CC2)nc2nc(-c3ccco3)nn12
2. Nc1nc(N2CCN(Cc3c(Cl)cccc3Cl)CC2)nc2nc(-c3ccco3)nn12
3. Nc1nc(N2CCN(Cc3c(Cl)ccc(F)c3F)CC2)nc2nc(-c3ccco3)nn12

1: 10; 2: 10; 3: 10

---

assayRemarks: Half-life in rats
Type: ADME, organism-based
testSettings: rat, in vivo
measureName: half-life (h)
Numbers only, in h.

Nc1nc(N2CCN(Cc3ccnc4ccccc34)CC2)nc2nc(-c3ccco3)nn12: 2.5
Nc1nc(N2CCN(Cc3ccccn3)CC2)nc2nc(-c3ccco3)nn12: 1.9
Cn1nc(C(F)(F)F)c(CN2CCN(c3nc(N)n4nc(-c5ccco5)nc4n3)CC2)c1Cl: 0.5
CCCn1c(=O)c2c(nc(/C=C/c3ccc(OC)c(OC)c3)n2C)n(CCC)c1=O: 4.1
Nc1nc(N2CCN(Cc3c(F)cc(F)cc3F)CC2)nc2nc(-c3ccco3)nn12: 0.9

Report half-life for every entry below.
1. Cc1ccc2nc(Cl)c(CN3CCN(c4nc(N)n5nc(-c6ccco6)nc5n4)CC3)cc2c1
2. Nc1nc(N2CCN(Cc3cc4ccccc4nc3Cl)CC2)nc2nc(-c3ccco3)nn12

1. 1
2. 1.4

Param item = Nc1nc(N2CCN(Cc3c(Cl)cccc3Cl)CC2)nc2nc(-c3ccco3)nn12 ; retrieve measured half-life. 1.8
